study-target: FGFR3 (UP) (Homo sapiens (Human), UniProt P22607)
Sequence (P22607 23-806): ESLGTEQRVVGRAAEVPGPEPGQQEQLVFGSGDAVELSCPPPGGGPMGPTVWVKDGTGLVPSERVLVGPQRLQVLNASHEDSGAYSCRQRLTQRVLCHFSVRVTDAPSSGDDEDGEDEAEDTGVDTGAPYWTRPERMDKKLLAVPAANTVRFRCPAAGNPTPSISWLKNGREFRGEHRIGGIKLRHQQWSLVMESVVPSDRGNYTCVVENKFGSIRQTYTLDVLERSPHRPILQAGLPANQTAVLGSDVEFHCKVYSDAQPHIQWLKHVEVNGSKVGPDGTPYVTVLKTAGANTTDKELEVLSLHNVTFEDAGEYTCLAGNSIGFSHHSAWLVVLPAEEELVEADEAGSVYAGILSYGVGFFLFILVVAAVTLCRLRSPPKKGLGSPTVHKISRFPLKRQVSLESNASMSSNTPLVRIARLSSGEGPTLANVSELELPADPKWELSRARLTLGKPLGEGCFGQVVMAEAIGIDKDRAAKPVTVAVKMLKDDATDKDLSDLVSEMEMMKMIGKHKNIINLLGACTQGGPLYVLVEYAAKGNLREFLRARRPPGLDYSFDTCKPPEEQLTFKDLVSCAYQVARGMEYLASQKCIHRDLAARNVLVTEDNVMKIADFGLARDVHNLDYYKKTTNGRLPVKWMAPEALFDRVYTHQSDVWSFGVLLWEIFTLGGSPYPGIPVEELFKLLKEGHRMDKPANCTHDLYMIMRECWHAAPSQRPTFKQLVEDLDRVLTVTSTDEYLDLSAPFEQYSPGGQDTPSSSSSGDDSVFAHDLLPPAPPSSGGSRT
method-description: FGFR Enzymatic Assay, FGFR3 un-phosphorylated
Reported values of IC50 for individual entries
attribute-measured: IC50

compound	study-target	result
COCC(=O)N1C[C@@H](C)N(c2ncc3[nH]nc(-c4ccc(N5CCN[C@H](C)C5)nc4)c3n2)[C@@H](C)C1	FGFR3 (UP) (Homo sapiens (Human), UniProt P22607)	500 to 2000 nM
COCCN1CCN(c2ncc3[nH]nc(-c4cnn(C)c4)c3n2)C(C)C1=O (stereo not shown)	FGFR3 (UP) (Homo sapiens (Human), UniProt P22607)	100 to 500 nM
C[C@@H]1CN(c2ccc(-c3n[nH]c4cnc(N5[C@H](C)CN(C(=O)OCCF)C[C@@H]5C)nc34)cn2)CCN1	FGFR3 (UP) (Homo sapiens (Human), UniProt P22607)	100 to 500 nM
C[C@@H]1CCC[C@H](C)N1c1ncc2[nH]nc(-c3ccc(N4CCN(C)CC4)cc3)c2n1	FGFR3 (UP) (Homo sapiens (Human), UniProt P22607)	100 to 500 nM
C[C@@H]1CN(c2ccc(-c3n[nH]c4cnc(N5C6CCC5CC6)nc34)cn2)CCN1	FGFR3 (UP) (Homo sapiens (Human), UniProt P22607)	100 to 500 nM
C[C@@H]1CN(c2ccc(-c3n[nH]c4cnc(N5[C@H](C)CN(C(=O)N6CCC(F)C6)C[C@@H]5C)nc34)cn2)CCN1 (stereo partly shown)	FGFR3 (UP) (Homo sapiens (Human), UniProt P22607)	500 to 2000 nM
CC(C)NC(=O)N1C[C@@H](C)N(c2ncc3[nH]nc(-c4ccc(N5CCN[C@H](C)C5)nc4)c3n2)[C@@H](C)C1	FGFR3 (UP) (Homo sapiens (Human), UniProt P22607)	500 to 2000 nM
COC(=O)N1C[C@@H](C)N(c2ncc3[nH]nc(-c4ccc(N5CCN(C)CC5)c(F)c4)c3n2)[C@@H](C)C1	FGFR3 (UP) (Homo sapiens (Human), UniProt P22607)	100 to 500 nM
C[C@@H]1CN(c2ccc(-c3n[nH]c4cnc(N5[C@@H]6CC[C@H]5CN(C(=O)C5CC5)C6)nc34)cn2)CCN1	FGFR3 (UP) (Homo sapiens (Human), UniProt P22607)	100 to 500 nM
Cn1cc(-c2n[nH]c3cnc(N4CCN(C5CC5)C(=O)C4)nc23)cn1	FGFR3 (UP) (Homo sapiens (Human), UniProt P22607)	100 to 500 nM
Cc1cnc2n1CCN(c1ncc3[nH]nc(-c4ccc(N5CCN[C@H](C)C5)nc4)c3n1)C2	FGFR3 (UP) (Homo sapiens (Human), UniProt P22607)	100 to 500 nM
CNC(=O)c1ccc(-c2n[nH]c3cnc(N4[C@H](C)CN(C(=O)OC)C[C@@H]4C)nc23)cc1	FGFR3 (UP) (Homo sapiens (Human), UniProt P22607)	100 to 500 nM
CCOC(=O)N1C[C@@H](C)N(c2ncc3[nH]nc(-c4ccc(N5CCN[C@H](C)C5)nc4)c3n2)[C@@H](C)C1	FGFR3 (UP) (Homo sapiens (Human), UniProt P22607)	500 to 2000 nM
CC1c2nccn2CCN1c1ncc2[nH]nc(-c3cnn(C)c3)c2n1 (stereo not shown)	FGFR3 (UP) (Homo sapiens (Human), UniProt P22607)	100 to 500 nM
C[C@@H]1CN(c2ccc(-c3n[nH]c4cnc(N5CCc6c(ncn6C)C5)nc34)cn2)CCN1	FGFR3 (UP) (Homo sapiens (Human), UniProt P22607)	100 to 500 nM
COC(=O)N1C[C@@H](C)N(c2ncc3[nH]nc(-c4ccc(N5CCO[C@H](C)C5)nc4)c3n2)[C@@H](C)C1	FGFR3 (UP) (Homo sapiens (Human), UniProt P22607)	100 to 500 nM
